Where these numbers come from: patent US20240059680A1

# maps each entry to its EC50
System: Dirofilaria immitis microfilariae
Assay: In Vitro Assay 3: Dirofilaria immitis microfilariae (DIROIM L1) motility
Assay type: cell-based
Details: 72 h
Quantity Measured: EC50

CC(C)c1c(C(=O)NN2CCOc3ccccc32)[nH]c2c(-c3cc(F)cc(F)c3F)cccc12    < 0.1 µg/mL
O=C(NN1CCOc2ccccc21)c1sc2c(-c3cc(F)cc(F)c3F)ccnc2c1N1CCOCC1    < 0.1 µg/mL
CC(C)c1c(C(=O)NN2CCOc3ccccc32)sc2c(-c3cc(F)cc(F)c3F)ccnc12    < 0.1 µg/mL
CC(C)c1c(C(=O)NN2CCOc3ccccc32)cnc2c1cnn2-c1cc(F)cc(F)c1F    0.1 to 1 µg/mL

###

Molecular target: UniProtKB I0DFK5
Sequence (I0DFK5 1-1119): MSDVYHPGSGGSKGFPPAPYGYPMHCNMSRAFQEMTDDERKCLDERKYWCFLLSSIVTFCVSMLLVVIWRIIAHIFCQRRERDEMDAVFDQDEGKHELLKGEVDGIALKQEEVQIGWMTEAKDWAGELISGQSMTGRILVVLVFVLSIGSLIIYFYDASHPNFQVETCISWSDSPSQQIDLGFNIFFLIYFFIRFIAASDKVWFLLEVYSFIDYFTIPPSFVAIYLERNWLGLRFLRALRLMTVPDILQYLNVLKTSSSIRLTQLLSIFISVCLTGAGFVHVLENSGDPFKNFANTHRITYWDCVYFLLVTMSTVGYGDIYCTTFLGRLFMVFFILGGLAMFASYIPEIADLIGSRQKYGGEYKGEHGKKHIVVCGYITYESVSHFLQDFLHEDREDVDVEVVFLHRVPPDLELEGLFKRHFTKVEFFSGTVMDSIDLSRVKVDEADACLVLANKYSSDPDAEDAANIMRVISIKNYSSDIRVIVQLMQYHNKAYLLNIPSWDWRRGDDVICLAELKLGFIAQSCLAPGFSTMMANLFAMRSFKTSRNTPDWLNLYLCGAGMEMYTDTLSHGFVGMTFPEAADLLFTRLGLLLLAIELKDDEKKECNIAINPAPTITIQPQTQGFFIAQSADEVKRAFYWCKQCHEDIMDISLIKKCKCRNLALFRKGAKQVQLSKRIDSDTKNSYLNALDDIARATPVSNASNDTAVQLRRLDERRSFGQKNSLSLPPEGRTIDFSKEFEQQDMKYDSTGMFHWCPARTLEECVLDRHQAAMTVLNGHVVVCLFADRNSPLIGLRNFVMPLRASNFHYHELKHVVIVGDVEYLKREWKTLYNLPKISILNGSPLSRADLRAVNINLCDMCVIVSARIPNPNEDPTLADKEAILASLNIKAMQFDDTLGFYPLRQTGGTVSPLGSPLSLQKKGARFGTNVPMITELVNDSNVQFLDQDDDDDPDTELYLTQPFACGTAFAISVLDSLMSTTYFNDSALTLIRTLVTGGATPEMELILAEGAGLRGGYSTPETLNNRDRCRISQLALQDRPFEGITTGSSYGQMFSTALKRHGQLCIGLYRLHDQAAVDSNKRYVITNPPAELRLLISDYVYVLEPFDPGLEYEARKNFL
Assay: In Vitro Assay 2: D. immitis Slo-1, membrane potential measurement in recombinant CHO cell line
Quantity Measured: EC50

Cc1nn2c(C(C)(C)O)c(C(=O)NN3CCOc4ccccc43)sc2c1-c1cc(F)cc(F)c1F    0.1 to 1 µM
CC(C)c1c(C(=O)NN2CCOc3ccccc32)sc2c(-c3cc(F)cc(F)c3F)cccc12    > 1 µM
CC(C)c1c(C(=O)NN2CCOc3ccccc32)sc2c(-c3cc(F)cc(F)c3F)c(F)cnc12    < 0.1 µM
O=C(NN1CCOc2ccccc21)c1sc2c(-c3cc(F)cc(F)c3F)c(F)cnc2c1N1CCOCC1    0.1 to 1 µM
Cc1cnc2c(C(C)C)c(C(=O)NN3CCOc4ccccc43)nn2c1-c1cc(F)cc(F)c1F    > 1 µM
Cc1nn(-c2cc(F)cc(F)c2F)c2ncc(C(=O)NN3CCOc4ccccc43)c(C(C)C)c12    > 1 µM
CC(C)c1c(C(=O)NN2CCOc3ccccc32)cnc2c1cnn2-c1cc(F)cc(F)c1F    > 1 µM
CC(C)c1c(C(=O)NN2CCOc3ccccc32)[nH]c2c(-c3cc(F)cc(F)c3F)cccc12    > 1 µM
CC(C)c1c(C(=O)NN2CCOc3ccccc32)sc2c(-c3cc(F)cc(F)c3F)ccnc12    < 0.1 µM
Cc1nn2c(N3CCOCC3)c(C(=O)NN3CCOc4ccccc43)sc2c1-c1cc(F)cc(F)c1F    > 1 µM

###

System: C. elegans Slo-1a (Caenorhabditis elegans, UniProt Q95V25) | Read-out: EC50
Sequence (Q95V25 whole entry): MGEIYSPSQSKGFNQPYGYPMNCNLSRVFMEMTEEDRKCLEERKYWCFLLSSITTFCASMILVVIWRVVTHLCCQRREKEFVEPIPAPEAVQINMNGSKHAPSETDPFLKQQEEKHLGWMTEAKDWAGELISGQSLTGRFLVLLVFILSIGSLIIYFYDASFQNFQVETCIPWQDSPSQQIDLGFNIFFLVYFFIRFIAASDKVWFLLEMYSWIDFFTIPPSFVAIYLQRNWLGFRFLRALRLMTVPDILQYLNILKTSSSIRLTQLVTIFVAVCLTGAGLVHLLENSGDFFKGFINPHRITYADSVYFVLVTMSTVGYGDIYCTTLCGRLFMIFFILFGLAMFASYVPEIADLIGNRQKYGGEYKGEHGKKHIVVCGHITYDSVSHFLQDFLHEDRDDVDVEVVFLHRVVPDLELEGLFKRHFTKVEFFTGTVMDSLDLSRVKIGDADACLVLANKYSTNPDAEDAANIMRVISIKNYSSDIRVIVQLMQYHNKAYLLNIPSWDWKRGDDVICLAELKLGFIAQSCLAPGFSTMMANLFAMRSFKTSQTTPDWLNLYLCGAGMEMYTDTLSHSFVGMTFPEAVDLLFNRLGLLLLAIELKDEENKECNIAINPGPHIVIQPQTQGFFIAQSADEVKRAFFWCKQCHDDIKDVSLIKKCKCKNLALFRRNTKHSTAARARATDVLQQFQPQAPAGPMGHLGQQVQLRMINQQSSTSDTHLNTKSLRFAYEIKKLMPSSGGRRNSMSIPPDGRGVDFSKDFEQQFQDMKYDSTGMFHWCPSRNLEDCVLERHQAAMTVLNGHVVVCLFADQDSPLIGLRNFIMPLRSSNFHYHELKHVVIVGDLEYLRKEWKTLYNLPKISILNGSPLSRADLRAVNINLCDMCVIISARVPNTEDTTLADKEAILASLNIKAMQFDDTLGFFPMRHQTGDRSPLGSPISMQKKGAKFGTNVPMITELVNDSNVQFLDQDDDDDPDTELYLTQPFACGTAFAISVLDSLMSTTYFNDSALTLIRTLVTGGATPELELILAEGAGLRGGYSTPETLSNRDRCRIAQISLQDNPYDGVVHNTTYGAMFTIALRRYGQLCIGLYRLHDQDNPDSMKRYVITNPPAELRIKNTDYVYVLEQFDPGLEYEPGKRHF
Quantity Measured: EC50

CC(C)c1c(C(=O)NN2CCOc3ccccc32)n(C)c2c(-c3cc(F)cc(F)c3F)cccc12 [Example 17.2]    > 1000 nM
O=C(NN1CCOc2ccccc21)c1sc2c(-c3cc(F)cc(F)c3F)c(F)cnc2c1N1CCOCC1 [Example 6.4]    < 100 nM
Cc1cnc2c(C(C)C)c(C(=O)NN3CCOc4ccccc43)nn2c1-c1cc(F)cc(F)c1F [Example 9.1]    > 1000 nM
CC(C)c1c(C(=O)NN2CCOc3ccccc32)[nH]c2c(-c3cc(F)cc(F)c3F)cccc12 [Example 17.1]    > 1000 nM
CC(C)c1c(C(=O)NN2CCOc3ccccc32)cnc2c1cnn2-c1cc(F)cc(F)c1F [Example 10.1]    100 to 1000 nM
CC(C)c1c(C(=O)NN2CCOc3ccccc32)cnc2c(-c3cc(F)cc(F)c3F)ncn12 [Example 11.1]    100 to 1000 nM
Cc1nn2c(C(C)(C)O)c(C(=O)NN3CCOc4ccccc43)sc2c1-c1cc(F)cc(F)c1F [Example 4.3]    < 100 nM
CC(C)c1c(C(=O)NN2CCOc3ccccc32)ccc2c1nnn2-c1cc(F)cc(F)c1F [Example 16.1]    > 1000 nM
O=C(NN1CCOc2ccccc21)c1sc2c(-c3cc(F)cc(F)c3F)nccc2c1N1CCOCC1 [Example 2.1]    100 to 1000 nM
CC(C)c1c(C(=O)NN2CCOc3ccccc32)sc2c(-c3cc(F)cc(F)c3F)ccnc12 [Example 6.7]    < 100 nM
CC(C)n1c(C(=O)NN2CCOc3ccccc32)nc2c(-c3cc(F)cc(F)c3F)nccc21 [Example 12.1]    > 1000 nM
CC(C)(O)c1c(C(=O)NN2CCOc3ccccc32)sc2c(-c3cc(F)cc(F)c3F)ccnc12 [Example 6.5]    < 100 nM
Cc1nn(-c2cc(F)cc(F)c2F)c2ncc(C(=O)NN3CCOc4ccccc43)c(C(C)C)c12 [Example 10.2]    > 1000 nM
Cc1nn2c(C(C)C)c(C(=O)NN3CCOc4ccccc43)sc2c1-c1cc(F)cc(F)c1F [Example 4.1]    < 100 nM
O=C(NN1CCOc2ccccc21)c1sc2c(-c3cc(F)cc(F)c3F)ccnc2c1N1CCOCC1 [Example 6.8]    < 100 nM
O=C(NN1CCOc2ccccc21)c1sc2c(-c3cc(F)cc(F)c3F)c(F)cnc2c1N1CC(F)C1 [Example 6.2]    100 to 1000 nM
